Data origin: patent US20150252022A1

System: IL-21
Test: Human TH17 Cytokine Inhibition as measured by ELISA (IL-21)
Assay type: cell-based
Settings: 72 h; human CD4+ T cells under TH17-polarizing conditions, 3 days, supernatant ELISA

| Compound | IC50 |
| --- | --- |
| O=C(CCc1ccccc1)N1CCC(Cn2ccc3cc(-c4cncs4)ccc32)CC1 [Example 124] | < 10 µM |
| CC(O)CC(=O)N1CCC(CN2CCc3cc(-c4cn[nH]c4)ccc32)CC1 (centres unmarked) [Example 72] | > 10 µM |
| O=C(OCc1ccccc1)N1CCC(CN2CCc3cc(-c4cn[nH]c4)ccc32)CC1 [Example 70] | < 10 µM |
| O=C(CC1CCCCC1)N1CCC(CN2CCc3cc(-c4cn[nH]c4)ccc32)C1 (centres unmarked) [Example 13] | > 10 µM |
| O=C(CCc1ccccc1)N1CCC(CN2CCCc3cc(-c4cn[nH]c4)ccc32)CC1 [Example 98] | < 10 µM |

---

Tested on: IL-21
Experiment: Human TH17 Cytokine Inhibition as measured by ELISA (IL-21)
Type: cell-based
Conditions: 72 h; human CD4+ T cells under TH17-polarizing conditions, 3 days, supernatant ELISA
pIC50: −log10 of the molar value.
Measured attribute: pIC50

| Compound | Value observed |
| --- | --- |
| CC(C)CC(=O)N1CCC(CN2CCc3cc(-c4cn[nH]c4)ccc32)CC1 [Example 44] | < 5.00 |
| O=C(CCc1ccccc1)N1CCC(Cn2ccc3cc(-c4c[nH]nn4)ccc32)CC1 [Example 112] | > 5.00 |
| Cc1ccncc1-c1ccc2c(ccn2CC2CCN(C(=O)CCc3ccccc3)CC2)c1 [Example 123] | > 5.00 |
| O=C(CC1CCCCC1)N1CCC(CN2CCc3cc(-c4cn[nH]c4)ccc32)CC1 [Example 43] | > 5.00 |
| CC1CC(CN2CCc3cc(-c4cn[nH]c4)ccc32)CN1C(=O)c1ccccc1 (stereo not shown) [Example 24] | > 5.00 |
| O=C(Cc1ccccc1)N1CCC(CN2CCc3cc(-c4cn[nH]c4)ccc32)C1 (stereo not shown) [Example 10] | > 5.00 |
| O=C(CCc1ccccc1F)N1CCC(Cn2ccc3cc(-c4cn[nH]c4)ccc32)CC1 [Example 95] | > 5.00 |
| O=C(C1CCCCC1)N1CCC(CN2CCc3cc(-c4cn[nH]c4)ccc32)C1 (stereo not shown) [Example 12] | < 5.00 |
| O=C(c1ccccc1)N1CCC(CN2CCc3cc(-c4cn[nH]c4)ccc32)CC1 [Example 39] | < 5.00 |
| O=C(NCc1ccccc1)N1CCC(CN2CCc3cc(-c4cn[nH]c4)ccc32)C1 (stereo not shown) [Example 65] | > 5.00 |
| O=C(CCc1ccccc1)N1CCC(Cn2ccc3cc(-c4cn[nH]c4C(F)(F)F)ccc32)CC1 [Example 117] | > 5.00 |
| O=C(CC1CCCCC1)N1CCC(CN2CCCc3cc(-c4cn[nH]c4)ccc32)CC1 [Example 99] | < 5.00 |
| CC(C)CC(=O)N1CCC(CN2CCc3cc(-c4cn[nH]c4)ccc32)C1 (stereo not shown) [Example 14] | < 5.00 |
| O=C(c1ccccc1)N1CCCC(CN2CCc3cc(-c4cn[nH]c4)ccc32)CC1 (stereo not shown) [Example 54] | > 5.00 |
| O=C(Cc1ccccc1)N1CCC(CN2CCCc3cc(-c4cn[nH]c4)ccc32)CC1 [Example 102] | < 5.00 |
| O=C(OCc1ccccc1)N1CCC(CN2CCc3cc(-c4cn[nH]c4)ccc32)C1 (stereo not shown) [Example 62] | < 5.00 |
| CC1CC(CN2CCc3cc(-c4cn[nH]c4)ccc32)CN1C(=O)C1CCCCC1 (stereo not shown) [Example 27] | > 5.00 |
| Cn1cc(-c2ccc3c(ccn3CC3CCN(C(=O)CCc4ccccc4)CC3)c2)cn1 [Example 125] | > 5.00 |
| O=C(Cc1ccccc1)N1CCC(Cn2ccc3cc(-c4cn[nH]c4)ccc32)CC1 [Example 88] | > 5.00 |
| CC(C)C(=O)N1CCCC(Cn2ccc3cc(-c4cn[nH]c4)ccc32)CC1 (stereo not shown) [Example 60] | < 5.00 |
| O=C(CCc1ccccc1)N1CCC(Cn2ccc3cc(-c4cnccn4)ccc32)CC1 [Example 121] | > 5.00 |
| CC1CC(CN2CCc3cc(-c4cn[nH]c4)ccc32)CN1C(=O)CCc1ccccc1 (stereo not shown) [Example 26] | > 5.00 |
| O=C(CCc1ccc(F)cc1)N1CCC(Cn2ccc3cc(-c4cn[nH]c4)ccc32)CC1 [Example 93] | > 5.00 |
| Cc1ccc(-c2ccc3c(ccn3CC3CCN(C(=O)CCc4ccccc4)CC3)c2)nc1 [Example 122] | > 5.00 |
| CC(C)CNC(=O)N1CCC(CN2CCc3cc(-c4cn[nH]c4)ccc32)CC1 [Example 74C] | < 5.00 |
| NC(=O)Cn1cc(-c2ccc3c(ccn3CC3CCN(C(=O)CCc4ccccc4)CC3)c2)cn1 [Example 119] | > 5.00 |
| Cc1cc2cc(-c3cn[nH]c3)ccc2n1CC1CC(C)N(C(=O)CCc2ccccc2)C1 (racemic) [Example 131] | > 5.00 |
| CC1(C)CC(Cn2ccc3cc(-c4cn[nH]c4)ccc32)CN1C(=O)CCc1ccccc1 (stereo not shown) [Example 110] | > 5.00 |
